- assay-details: Ratio of drug concentration in male mouse brain to plasma at 10 mg/kg, ip measured after 4 hrs by LC-MS/MS analysis
- Assay type: ADME, organism-based
- condition-summary: brain and plasma, read-out: BPR
recorded-metric: Kp at 4 h
Number only, no unit.

## Input // Kp at 4 h lookup, key: `CCn1c2ccccc2c2cc(Nc3ccnc(Nc4ccc(C)c(OC)c4)n3)ccc21`
## Output 0.31

====

- assay-details: Cmax in male Sprague-Dawley rat at 2.5 mg/kg, ip measured after 5 to 1440 mins by LC-MS/MS analysis
- Assay type: ADME, organism-based
- condition-summary: in vivo, time 5-1440 min
recorded-metric: Cmax (ng/mL)
Kindly answer with a numeric value in ng/mL, unit omitted.

## Input // Cmax lookup, key: `CCn1c2ccccc2c2cc(Nc3ccnc(Nc4ccc(C)c(OC)c4)n3)ccc21`
## Output 281

Numbers sourced from ChEMBL document CHEMBL6121007.
